The entries below come with measured pIC50 values attached.
- Test system: Plasmodium falciparum
- experiment summary: In vitro antimalarial activity against Plasmodium falciparum D10
pIC50: −log10 of the molar value.

{"columns": ["molecule", "value operator", "pIC50"],
 "data": [
  ["CCCCCCC[C@H]1OO[C@@H](CCC)[C@H]2O[C@H]21", "<", 5.00],
  ["C1=C[C@H](C2CCC2)OO[C@@H]1C1CCC1", "<", 5.00],
  ["C1=C[C@H](C2CCCC2)OO[C@@H]1C1CCCC1", "=", 6.22],
  ["C1C2CC3CC1CC([C@H]1OOC[C@@H]4O[C@@H]41)(C2)C3", "=", 5.40],
  ["C1CC([C@H]2OO[C@@H](C3CCC3)[C@H]3O[C@H]32)C1", "=", 5.80],
  ["c1ccc([C@H]2OO[C@@H](c3ccccc3)[C@@H]3O[C@@H]32)cc1", "<", 5.00],
  ["C1=C[C@@H](C23C[C@H]4C[C@@H](C2)C[C@@H](C3)C4)OOC1", "=", 5.89],
  ["c1ccc(C2(c3ccccc3)OOCC3OC32)cc1 (stereo not given)", "=", 5.30],
  ["C1=C[C@@H](C2CCCCC2)OOC1", "=", 5.49],
  ["C[C@@H]1OO[C@H](CC(=O)OC23CC4CC(CC(C4)C2)C3)[C@@H]2O[C@@H]21", "=", 5.30]
]}
